- Tested on: BT474 cells
- ASSAY PROCEDURE: MTT cell viability assay, BT474 breast cancer cells
- Assay type: cell-based
- MEASUREMENT CONTEXT: Homo sapiens, BT-474, 48 h, read-out: BT474 IC50
pIC50: −log10 of the molar value.
ATTRIBUTE MEASURED: pIC50

compound="C[C@H]1[C@H](OC(=O)CCC(=O)O)O[C@@H]2O[C@@]3(C)CC[C@H]4[C@H](C)CC[C@@H]1[C@@]24OO3 [Artesunate, reference compound]" attribute_measured=pIC50 assay_value=5.11

* * *

The compounds listed here are annotated with their Selectivity BT474.
- Test system: BT474 cells
- ASSAY PROCEDURE: MTT cell viability assay, BT474 breast cancer cells
- Type: cell-based
- MEASUREMENT CONTEXT: values match MCF-10A IC50 / BT474 IC50; formula not given
- Protocol: In vitro toxicity of the compounds described herein were tested on two breast cancer cell lines, MDA-MB-231 and BT-474. These cell lines represent triple negative and HER2-positive breast cancers, respectively. […] A standard MTT assay was used to determine the cell viability at 48 hr after an artemisinin derivative was added to the culture medium. […] To 50 μL of cells was added 20 μL of trypan blue 0.4% solution and 30 μL D-Hanks solution was counted. […]
ATTRIBUTE MEASURED: Selectivity BT474

compound="COC(=O)CNC(=O)C(CC[C@H]1O[C@@H]2OC3(C)CCC4[C@H](C)CCC([C@H]1C)[C@]42OO3)N(CCC[C@H]1O[C@@H]2OC3(C)CCC4[C@H](C)CCC([C@H]1C)[C@]42OO3)c1ccc([N+](=O)[O-])cc1 (stereo partly drawn)" attribute_measured="Selectivity BT474" assay_value=490
compound="C[C@H]1[C@@H](CC(COC(=O)CCC(=O)O)C[C@H]2O[C@@H]3O[C@@]4(C)CC[C@H]5[C@H](C)CC[C@@H]([C@H]2C)[C@@]35OO4)O[C@@H]2O[C@@]3(C)CC[C@H]4[C@H](C)CC[C@@H]1[C@@]24OO3 (stereo partly drawn) [Artemisinin dimer succinate, reference compound]" attribute_measured="Selectivity BT474" assay_value=210
compound="COC(=O)CNC(=O)C(CC[C@H]1O[C@@H]2OC3(C)CCC4[C@H](C)CCC([C@H]1C)[C@]42OO3)N(CCC[C@H]1O[C@@H]2OC3(C)CCC4[C@H](C)CCC([C@H]1C)[C@]42OO3)C(=O)c1ccc(N(C)C)cc1 (stereo partly drawn)" attribute_measured="Selectivity BT474" assay_value=17

* * *

Here the recorded IC50 is given for each entry.
- System: MCF-10A
- ASSAY PROCEDURE: MCF-10A IC50
- Type: cell-based
- MEASUREMENT CONTEXT: Homo sapiens, MCF-10A
ATTRIBUTE MEASURED: IC50

compound="COC(=O)CNC(=O)C(CC[C@H]1O[C@@H]2OC3(C)CCC4[C@H](C)CCC([C@H]1C)[C@]42OO3)N(CCC[C@H]1O[C@@H]2OC3(C)CCC4[C@H](C)CCC([C@H]1C)[C@]42OO3)C(=O)C(F)(F)F (stereo partly shown) [Compound 6a]" assay_value="4.6 µM"
compound="COC(=O)CNC(=O)C(CC[C@H]1O[C@@H]2OC3(C)CCC4[C@H](C)CCC([C@H]1C)[C@]42OO3)N(CCC[C@H]1O[C@@H]2OC3(C)CCC4[C@H](C)CCC([C@H]1C)[C@]42OO3)C(=O)c1ccc(N(C)C)cc1 (stereo partly shown) [Compound 6d]" assay_value="15 µM"
compound="COC(=O)CNC(=O)C(CC[C@H]1O[C@@H]2OC3(C)CCC4[C@H](C)CCC([C@H]1C)[C@]42OO3)N(C(=O)c1ccccc1)C(C)C (stereo partly shown) [Compound 7]" assay_value="> 100 µM"
compound="COC(=O)CNC(=O)C(CC[C@H]1O[C@@H]2OC3(C)CCC4[C@H](C)CCC([C@H]1C)[C@]42OO3)N(CCC[C@H]1O[C@@H]2OC3(C)CCC4[C@H](C)CCC([C@H]1C)[C@]42OO3)C(=O)c1ccccc1 (stereo partly shown) [Compound 6b]" assay_value="5 µM"

* * *

- Tested on: BT474 cells
- ASSAY PROCEDURE: MTT cell viability assay, BT474 breast cancer cells
- Format: cell-based
- MEASUREMENT CONTEXT: values match MCF-10A IC50 / BT474 IC50; formula not given
ATTRIBUTE MEASURED: Selectivity BT474

compound="COC(=O)CNC(=O)C(CC[C@H]1O[C@@H]2OC3(C)CCC4[C@H](C)CCC([C@H]1C)[C@]42OO3)N(CCC[C@H]1O[C@@H]2OC3(C)CCC4[C@H](C)CCC([C@H]1C)[C@]42OO3)C(=O)c1cccc(OC)c1OC (some centres unmarked)" attribute_measured="Selectivity BT474" assay_value=0.98
compound="COC(=O)CNC(=O)C(CC[C@H]1O[C@@H]2OC3(C)CCC4[C@H](C)CCC([C@H]1C)[C@]42OO3)N(CCC[C@H]1O[C@@H]2OC3(C)CCC4[C@H](C)CCC([C@H]1C)[C@]42OO3)C(=O)c1ccccc1 (some centres unmarked)" attribute_measured="Selectivity BT474" assay_value=6.3

* * *

Known IC50 of a selection of compounds
- Test system: MCF-10A
- ASSAY PROCEDURE: MCF-10A IC50
- Assay type: cell-based
- MEASUREMENT CONTEXT: Homo sapiens, MCF-10A
ATTRIBUTE MEASURED: IC50 (µM)

compound="COC(=O)CNC(=O)C(CC[C@H]1O[C@@H]2OC3(C)CCC4[C@H](C)CCC([C@H]1C)[C@]42OO3)N(CCC[C@H]1O[C@@H]2OC3(C)CCC4[C@H](C)CCC([C@H]1C)[C@]42OO3)c1ccc([N+](=O)[O-])cc1 (stereo partly shown)" attribute_measured=IC50 assay_value=47
compound="C[C@H]1[C@H](OC(=O)CCC(=O)O)O[C@@H]2O[C@@]3(C)CC[C@H]4[C@H](C)CC[C@@H]1[C@@]24OO3 [Artesunate, reference compound]" attribute_measured=IC50 assay_value=21
compound="COC(=O)CNC(=O)C(CC[C@H]1O[C@@H]2OC3(C)CCC4[C@H](C)CCC([C@H]1C)[C@]42OO3)N(CCC[C@H]1O[C@@H]2OC3(C)CCC4[C@H](C)CCC([C@H]1C)[C@]42OO3)C(=O)c1cnccn1 (stereo partly shown)" attribute_measured=IC50 assay_value=25
compound="COC(=O)CNC(=O)C(CC[C@H]1O[C@@H]2OC3(C)CCC4[C@H](C)CCC([C@H]1C)[C@]42OO3)N(CCC[C@H]1O[C@@H]2OC3(C)CCC4[C@H](C)CCC([C@H]1C)[C@]42OO3)C(=O)c1cccc(OC)c1OC (stereo partly shown)" attribute_measured=IC50 assay_value=5.7

* * *

Below is a list of entries, each paired with its recorded Selectivity BT474 value.
- System: BT474 cells
- ASSAY PROCEDURE: MTT cell viability assay, BT474 breast cancer cells
- Format: cell-based
- MEASUREMENT CONTEXT: values match MCF-10A IC50 / BT474 IC50; formula not given
- Protocol: In vitro toxicity of the compounds described herein were tested on two breast cancer cell lines, MDA-MB-231 and BT-474. These cell lines represent triple negative and HER2-positive breast cancers, respectively. […] A standard MTT assay was used to determine the cell viability at 48 hr after an artemisinin derivative was added to the culture medium. […] To 50 μL of cells was added 20 μL of trypan blue 0.4% solution and 30 μL D-Hanks solution was counted. […]
ATTRIBUTE MEASURED: Selectivity BT474

compound="C[C@H]1[C@H](OC(=O)CCC(=O)O)O[C@@H]2O[C@@]3(C)CC[C@H]4[C@H](C)CC[C@@H]1[C@@]24OO3 [Artesunate, reference compound]" assay_value=2.7
compound="COC(=O)CNC(=O)C(CC[C@H]1O[C@@H]2OC3(C)CCC4[C@H](C)CCC([C@H]1C)[C@]42OO3)N(CCC[C@H]1O[C@@H]2OC3(C)CCC4[C@H](C)CCC([C@H]1C)[C@]42OO3)C(=O)C(F)(F)F (stereo partly drawn)" assay_value=0.70
compound="COC(=O)CNC(=O)C(CC[C@H]1O[C@@H]2OC3(C)CCC4[C@H](C)CCC([C@H]1C)[C@]42OO3)N(CCC[C@H]1O[C@@H]2OC3(C)CCC4[C@H](C)CCC([C@H]1C)[C@]42OO3)C(=O)c1cnccn1 (stereo partly drawn)" assay_value=15
